systemName: HIV protease (Human immunodeficiency virus type 1 group M subtype B, UniProt P04585)
Construct: HIV protease consists of 99 amino acids and is evidently split off by itself from the pol polyprotein
protocolText: Inhibition of HIV protease (cleavage of H-Ser-Phe-Asn-Phe-Opr-Gln-Ile-OH, HPLC)
Type: biochemical
runParameters: inhibitor concentration at which the cleavage rate is halved; pH 6, 2 hours; read-out: IC50
pIC50: −log10 of the molar value. Counter-ions that a name gives are not always drawn.
reportedEndpoint: pIC50

molecule	pIC50
CC(C)[C@H](NC(=O)[C@@H](N)Cc1ccccc1)C(=O)N[C@H](CNC[C@H](Cc1ccccc1)NC(=O)[C@@H](NC(=O)[C@@H](N)Cc1ccccc1)C(C)C)Cc1ccccc1 [Example 21, trihydrochloride]	6.66
N[C@@H](CCCCNC(=O)OCc1ccccc1)C(=O)N[C@@H](Cc1ccccc1)[C@@H](O)[C@H](O)[C@H](Cc1ccccc1)NC(=O)[C@@H](N)CCCCNC(=O)OCc1ccccc1 [Example 132, dihydrochloride]	4.70
CC(C)(C)OC(=O)N[C@H](CNC[C@H](Cc1ccccc1)NC(=O)OC(C)(C)C)Cc1ccccc1 [Example 25, hydrochloride]	4.74

[A] CC(C)[C@H](NC(=O)[C@@H](N)Cc1ccccc1)C(=O)N[C@H](Cc1ccccc1)[C@@H](O)[C@H](O)[C@@H](Cc1ccccc1)NC(=O)[C@@H](NC(=O)[C@@H](N)Cc1ccccc1)C(C)C [Example 30, dihydrochloride]
[B] CC(C)[C@H](NC(=O)Cc1ccccn1)C(=O)N[C@@H](Cc1ccccc1)[C@@H](O)[C@H](O)[C@H](Cc1ccccc1)NC(=O)[C@@H](NC(=O)Cc1ccccn1)C(C)C [Example 58]
Would you mind telling me which has the lower recorded pIC50 between A and B ? Reply briefly: the label of your chosen item. B

----------
systemName: HIV protease (Human immunodeficiency virus type 1 group M subtype B)
Construct: HIV protease consists of 99 amino acids and is evidently split off by itself from the pol polyprotein
protocolText: Inhibition of HIV protease (cleavage of H-Ser-Phe-Asn-Phe-Opr-Gln-Ile-OH, HPLC)
Assay type: biochemical
runParameters: inhibitor concentration at which the cleavage rate is halved; pH 6, 2 hours; read-out: IC50
Counter-ions that a name gives are not always drawn.
reportedEndpoint: IC50 (nM)

[I] CC(C)[C@H](NC(=O)CN)C(=O)N[C@@H](Cc1ccccc1)[C@@H](O)[C@H](O)[C@H](Cc1ccccc1)NC(=O)[C@@H](NC(=O)CN)C(C)C
[II] CC(C)[C@H](NC(=O)[C@@H](N)Cc1ccccc1)C(=O)N[C@@H](CCc1ccccc1)[C@@H](O)[C@H](O)[C@H](CCc1ccccc1)NC(=O)[C@@H](NC(=O)[C@@H](N)Cc1ccccc1)C(C)C [Example 148, dihydrochloride]
[III] CC(C)C[C@H](NC(=O)[C@@H](NC(=O)[C@@H](N)Cc1ccccc1)C(C)C)C(O)C(O)[C@H](CC(C)C)NC(=O)[C@@H](NC(=O)[C@@H](N)Cc1ccccc1)C(C)C (stereo partly drawn)
[IV] CC(C)[C@H](NC[C@@H](N)Cc1ccccc1)C(=O)N[C@@H](Cc1ccccc1)[C@H](O)[C@@H](O)[C@H](Cc1ccccc1)NC(=O)[C@@H](NC[C@@H](N)Cc1ccccc1)C(C)C
[V] CC(C)[C@H](NC(=O)[C@@H](N)CCCCN)C(=O)N[C@@H](Cc1ccccc1)[C@@H](O)[C@H](O)[C@H](Cc1ccccc1)NC(=O)[C@@H](NC(=O)[C@@H](N)CCCCN)C(C)C
Ascending sort, IC50. Show the ranking through the labels, in the order asked for. III, I, V, II, IV
(III: 1.3 nM, I: 1.9 nM, V: 17 nM, II: 36 nM, IV: 3000 nM)
